Source of measurements: paper PMC7607171

assay: Pharmacokinetics, dried blood spot LC-MS/MS, mice with DLD1 tumors; type: in vivo; settings: Swiss Nu/nu, mouse, whole blood (dried blood spot), po, mono; regorafenib 15, erlotinib 12.5, selumetinib 5, vemurafenib 75 mg/kg
parameter: Tmax

Worked examples follow.
CCCS(=O)(=O)Nc1ccc(F)c(C(=O)c2c[nH]c3ncc(-c4ccc(Cl)cc4)cc23)c1F; 2 h
CNC(=O)c1cc(Oc2ccc(NC(=O)Nc3ccc(Cl)c(C(F)(F)F)c3)c(F)c2)ccn1; 8 h
C#Cc1cccc(Nc2ncnc3cc(OCCOC)c(OCCOC)cc23)c1; 2 h

Shifting focus to the compound that follows.
// Tmax value for Cn1cnc2c(F)c(Nc3ccc(Br)cc3Cl)c(C(=O)NOCCO)cc21 : 2 h

---

assay: Pharmacokinetics, dried blood spot LC-MS/MS, mice with SW620 tumors; format: in vivo; conditions: Swiss Nu/nu, mouse, whole blood (dried blood spot), po, 10 mg/kg, given as part of SW620-specific ODC; regorafenib 30, vemurafenib 75, GDC-0994 10 mg/kg
parameter: Tmax

Please fill in: Tmax reported for Cn1nccc1Nc1nccc(-c2ccn([C@H](CO)c3ccc(Cl)c(F)c3)c(=O)c2)n1 = 2 h

---

test: Pharmacokinetics, dried blood spot LC-MS/MS, mice with SW620 tumors; type: in vivo; conditions: Swiss Nu/nu, mouse, whole blood (dried blood spot), po, 10 mg/kg, mono; whole blood; oral; regorafenib 30, vemurafenib 75, GDC-0994 10 mg/kg; mean ± SD; read-out: AUC0-24h
parameter: AUC(0-t)
Please answer in the form of a number followed by its unit of measurement.

Notebook: Cn1nccc1Nc1nccc(-c2ccn([C@H](CO)c3ccc(Cl)c(F)c3)c(=O)c2)n1 [GDC-0994] , AUC(0-t) read as 31.6 µg·h/mL

---

experiment: Serum and intratumor drug concentration at experimental endpoint, DLD1 model; format: in vivo, mice; details: Swiss Nu/nu, mouse, tumor (DLD1), oral, as part of ODC; DLD1 tumor, 1h post-treatment at endpoint (day 15); doses as E156; read-out: concentration tumor
Would you kindly list concentration at 1 h for each of these compounds?
One number for each entry, in ng/g.

Cn1cnc2c(F)c(Nc3ccc(Br)cc3Cl)c(C(=O)NOCCO)cc21; 4530
C#Cc1cccc(Nc2ncnc3cc(OCCOC)c(OCCOC)cc23)c1; 7600
CCCS(=O)(=O)Nc1ccc(F)c(C(=O)c2c[nH]c3ncc(-c4ccc(Cl)cc4)cc23)c1F; 1650

From here, focus on the item given below.
What the record says about CNC(=O)c1cc(Oc2ccc(NC(=O)Nc3ccc(Cl)c(C(F)(F)F)c3)c(F)c2)ccn1 : concentration at 1 h is 8670

---

assay: Serum and intratumor drug concentration at experimental endpoint, DLD1 model; format: in vivo, mice; details: Swiss Nu/nu, mouse, tumor vs serum, oral, as part of ODC; DLD1 model; read-out: ratio tumor vs serum
Please go through the items and note down their Kp at 1 h.
Numbers only.

Below: 3 molecules and their reported Kp at 1 h.
CCCS(=O)(=O)Nc1ccc(F)c(C(=O)c2c[nH]c3ncc(-c4ccc(Cl)cc4)cc23)c1F [vemurafenib]; 1.81
C#Cc1cccc(Nc2ncnc3cc(OCCOC)c(OCCOC)cc23)c1 [erlotinib]; 2.5
Cn1cnc2c(F)c(Nc3ccc(Br)cc3Cl)c(C(=O)NOCCO)cc21 [selumetinib]; 1.3

The molecule listed as CNC(=O)c1cc(Oc2ccc(NC(=O)Nc3ccc(Cl)c(C(F)(F)F)c3)c(F)c2)ccn1 [regorafenib] has a reported Kp at 1 h of 4.74
